Source of measurements: the supplement of paper PMC8253809

Reported values of growth inhibition for individual entries
- Tested on: DIPGX7 (H3.3 K27M diffuse intrinsic pontine glioma line)
- Procedure Details: growth inhibition (% activity, log2 RLU normalised to DMSO / staurosporine); higher = more growth inhibition
- Run Parameters: 33 µM
Record the value in %, omitting the unit from your answer.

Query Smiles: CN1CC(=O)N2[C@H](c3ccc4c(c3)OCO4)c3[nH]c4ccccc4c3C[C@@H]2C1=O
Measurement Target: DIPGX7
growth inhibition, %: 0.64

Query Smiles: CC(C)(C#N)c1cc(Cn2cncn2)cc(C(C)(C)C#N)c1
Measurement Target: DIPGX7
growth inhibition, %: 0.764

Switching to the query record.
## Input Tell me the measured growth inhibition of `COc1cc(C)c(/C=C/C(C)=C/C=C/C(C)=C/C(=O)O)c(C)c1C` , please.
## Output 6.14

* * *

- Tested on: DIPGX29 (H3.3 K27M diffuse intrinsic pontine glioma line)
- Procedure Details: growth inhibition (% activity, log2 RLU normalised to DMSO / staurosporine); higher = more growth inhibition
- Run Parameters: 33 µM
Reported growth inhibition by item:
Respond with the bare value in %.

In the examples that follow, each entry is paired with its recorded growth inhibition.
Molecule: c1ccc2c(CC3=NCCN3)cccc2c1
Result Units: %
Obs Value: 0.509

Molecule: COc1cc2c(cc1Cc1cccc(Cl)c1F)c(=O)c(C(=O)O)cn2[C@H](CO)C(C)C
Result Units: %
Obs Value: 1.03

Molecule: CCN[C@H]1C[C@H](C)S(=O)(=O)c2sc(S(N)(=O)=O)cc21
Result Units: %
Obs Value: 1.81

Molecule: CC1(C)O[C@@H]2[C@@H](CO[C@@]3(COS(N)(=O)=O)OC(C)(C)O[C@@H]23)O1
Result Units: %
Obs Value: -3.02

Molecule: CN(Cc1cc(Br)cc(Br)c1N)C1CCCCC1
Result Units: %
Obs Value: 2.48

Molecule: Cc1cccn2c(=O)c(-c3nnn[nH]3)cnc12
Result Units: %
Obs Value: 0.15

Molecule: O=C1O[C@H]([C@@H](O)CO)C([O-])=C1O.[Na+]
Result Units: %
Obs Value: -5.78

Molecule: CC(C)OC(=O)C(C)(C)Oc1ccc(C(=O)c2ccc(Cl)cc2)cc1
Result Units: %
Obs Value: 3.79

Molecule: CCC(NC(C)C)C(O)c1ccc(O)c(O)c1 (stereo not drawn)
Result Units: %
Obs Value: 2.91

Molecule: Nc1nc2n[nH]nc2c(=O)[nH]1
Result Units: %
Obs Value: 14.5

## Input If you can, please state the reported growth inhibition value of `CCCCCCCCCCCCCCCCO` .
## Output -0.933

## Input Which growth inhibition value is on record for CCN1CCCC1CNC(=O)c1cc(S(=O)(=O)CC)c(N)cc1OC (stereo not drawn) ?
## Output 2.92

## Input // growth inhibition lookup, key: `NS(=O)(=O)c1cc2c(cc1Cl)N=C(CSCc1ccccc1)NS2(=O)=O`
## Output -2.8

* * *

Each entry below carries its reported growth inhibition.
- Test system: HGGX39 (paediatric high-grade glioma line)
- Procedure Details: growth inhibition (% activity, log2 RLU normalised to DMSO / staurosporine); higher = more growth inhibition
- Run Parameters: 33 µM
Lab book: enter the figure in %, no units written.

Past entries and their recorded results:
Compound: Fc1ccc([C@@H]2CCNC[C@H]2COc2ccc3c(c2)OCO3)cc1
Result Type: growth inhibition
Obs Value: -1.48
--
Compound: Nc1c(CC(=O)O)cccc1C(=O)c1ccccc1
Result Type: growth inhibition
Obs Value: -0.264
--
Compound: COc1ccc(CC(C)NCC(O)c2ccc(O)c(NC=O)c2)cc1 (stereo not given)
Result Type: growth inhibition
Obs Value: 3.66

## Input Write down the reported growth inhibition of `CS(=O)(=O)c1ccc(C2=C(c3ccccc3)C(=O)OC2)cc1` , test system: HGGX39.
## Output -1.94

## Input Notebook: pull reported growth inhibition for HGGX39, entry `NC(=O)C(c1ccccc1)(c1ccccc1)[C@@H]1CCN(CCc2ccc3c(c2)CCO3)C1`
## Output 4.33
